- Tested on: LCLC-103H
- METHOD: relative viability (nuclei count vs DMSO), 5 days (fraction); higher = more cells survive
- TEST CONDITIONS: first compound 0.003162 µM
ASSAY METRIC: relative viability

Prompt: Give the observed relative viability of Cc1cn(-c2cc(NC(=O)c3ccc(C)c(Nc4nccc(-c5cccnc5)n4)c3)cc(C(F)(F)F)c2)cn1 [Nilotinib] + CS(=O)(=O)N1CCN(Cc2cc3nc(-c4cccc5[nH]ncc45)nc(N4CCOCC4)c3s2)CC1 [Pictilisib] (partner 1 µM) for LCLC-103H.
Response: 0.638

Prompt: Give the observed relative viability of Cc1cn(-c2cc(NC(=O)c3ccc(C)c(Nc4nccc(-c5cccnc5)n4)c3)cc(C(F)(F)F)c2)cn1 [Nilotinib] + Cc1nc(Nc2ncc(C(=O)Nc3c(C)cccc3Cl)s2)cc(N2CCN(CCO)CC2)n1 [Dasatinib] (partner 0.075 µM) for LCLC-103H.
Response: 0.414

Prompt: Give the observed relative viability of Cc1cn(-c2cc(NC(=O)c3ccc(C)c(Nc4nccc(-c5cccnc5)n4)c3)cc(C(F)(F)F)c2)cn1 [Nilotinib] + Nc1ncn([C@H]2C[C@H](O)[C@@H](CO)O2)c(=O)n1 [Decitabine] (partner 2 µM) for LCLC-103H.
Response: 0.883

The reported numbers originate from the supplement of paper PMC10307832.
